Taken from PubChem BioAssay (NCATS).

# protocolDetails: qHTS for identification of novel therapeutic agents for treatment of microphthalmiaassociated transcription factor (MiT) renal cell carcinoma (RCC) (AID 1963991);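 further: curves scaled with 100% = DMSO viability and 0% = empty wells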
# experimentalContext: TFE3-RCC viability, CellTiter-Glo, 48 h; measured here: UOK145 Z-AUC; stronger effect = lower value
Inconclusive results are not listed.
reportedMetric: z-score
Response field accepts a number only; no unit should be typed.

Example cases with answers are listed next.
testsmiles=Nc1ncnc2c1ncn2[C@@H]1O[C@@H](CO)[C@H](O)[C@H]1O numericvalue=0.73
testsmiles=COc1ccc(-c2coc3cc(O)ccc3c2=O)cc1 numericvalue=0.452

Then there is this compound:
Prompt: So what does the record say about z-score for CCOC(=O)O[C@]1(C(=O)OCCl)CC[C@@H]2[C@H]3CCC4=CC(=O)C=C[C@]4(C)[C@@H]3[C@@H](O)C[C@@]21C ?
Response: 2.11

====

# protocolDetails: qHTS assay for measurement of the activity of small molecule inhibitors on Zika virus induced Caspase-3 activity in human iPSC derived neural progenitor cells (hNPCs) (AID 1224857); further: % of control where 0% means no effect; nearly all actives have a fitted effect of over 65% in size
# experimentalContext: hNPCs ZIKV-induced caspase-3/7, Caspase-Glo luminescence, 6 h; series mostly up to 45.7 µM
Records with an inconclusive call do not appear. The source made the active and inactive calls. The call rests on the fitted dose curve; in most records, active means well fitted inhibition curve with a large enough effect; inconclusive means small, poorly fitted or top-dose-only effect; inactive means no such curve, though single readings can be large or run the other way.
reportedMetric: outcome

compound=NC(N)=Nc1nc(CSCC/C(N)=N/S(N)(=O)=O)cs1 result=inactive
compound=Nc1ncnc2c1nc(Cl)n2[C@@H]1O[C@H](CO)[C@@H](O)[C@@H]1O result=inactive
compound="COc1ccc2c3c1OC1C[C@@H](O)C=C[C@@]31CCN(C)C2 (stereo partly drawn)" result=inactive

====

# protocolDetails: qHTS profiling of the MIPE4 collection as inhibitors of Plasmodium falciparum (DD2) proliferation (Rep 2) (AID 743346)
# experimentalContext: P. falciparum Dd2 in erythrocytes, SYBR Green DNA, 72 h; at 28.5 µM (top of the series) unless noted
parasite growth, % of control (lower = inhibition) strictly less than 60% = Met. Otherwise Not met.

compound=COc1cc(Nc2ncc(F)c(Nc3ccc4c(n3)NC(=O)C(C)(C)O4)n2)cc(OC)c1OC grouplabel=Met
compound=Cc1c[nH]c(C=C2C(=O)Nc3ccccc32)c1CCC(=O)O grouplabel=Met

Prompt: Please state whether parasite growth, % of control (lower = inhibition) is below 60% for C=C1C(=O)OC(CCCCCCCC)C1C(=O)O (configuration not stated)
Response: Not met

Prompt: Please state whether parasite growth, % of control (lower = inhibition) is below 60% for COc1ccc(C2CC(c3ccccc3)=NN2c2ccc(S(N)(=O)=O)cc2)cc1 (configuration not stated)
Response: Met

Prompt: Please state whether parasite growth, % of control (lower = inhibition) is below 60% for NC1=N[C@@]2(c3cc(NC(=O)c4ccc(F)cn4)ccc3F)COC[C@@H]2CS1
Response: Met

Prompt: Please state whether parasite growth, % of control (lower = inhibition) is below 60% for O=C(O)c1c(Cl)c(Cl)c(Cl)c(Cl)c1-c1c2cc(I)c(=O)c(I)c-2oc2c(I)c(O)c(I)cc12
Response: Not met

Prompt: Please state whether parasite growth, % of control (lower = inhibition) is below 60% for CCCCCNC(=O)N1CCC(CN(Cc2ccc(Cl)cc2)Cc2ccc([N+](=O)[O-])s2)C1 (configuration not stated)
Response: Met

Prompt: Please state whether parasite growth, % of control (lower = inhibition) is below 60% for O=C(NOCC(O)CO)c1cc(Br)c(F)c(F)c1Nc1ccc(I)cc1F (configuration not stated)
Response: Not met

Prompt: Please state whether parasite growth, % of control (lower = inhibition) is below 60% for O=c1cc(-c2ccc(O)cc2)oc2cc(O)cc(O)c12
Response: Met

Prompt: Please state whether parasite growth, % of control (lower = inhibition) is below 60% for NC(=O)NN=Cc1ccc([N+](=O)[O-])o1
Response: Met

Prompt: Please state whether parasite growth, % of control (lower = inhibition) is below 60% for Cc1ccc([C@@H]2O[C@H](CO)[C@@H](O)[C@H](O)[C@@H]2O)cc1Cc1ccc(-c2ccc(F)cc2)s1
Response: Not met
